Please provide measured TGI for the entries that follow.
- System: SF-539 CNS
- MEASUREMENT PROTOCOL: NCI tumour cell line growth inhibition, 48 h

Ask: // returns reported TGI for input COc1ccccc1NC(=O)CC(=O)n1nc(C)c(N=Nc2ccccc2C(=O)O)c1C
Result: > 100 µM

Ask: // returns reported TGI for input Nc1ccc(C(=O)N/C(=C\c2ccc3c(c2)OCO3)c2nc3[nH]c(=S)[nH]c(=O)c3[nH]2)cc1
Result: > 100 µM

Ask: // returns reported TGI for input CC(C)=C1C(=O)C[C@]2(C)C[C@H]3O[C@]3(C)CC[C@@H]3O[C@@]3(C)CC[C@@H]12
Result: > 50 µM

Ask: // returns reported TGI for input O=C1N(Cl)C(=O)C(c2ccc(Cl)cc2)(c2ccc(Cl)cc2)N1Cl
Result: > 100 µM

Ask: // returns reported TGI for input COc1cccc(NC(=O)CC(=O)n2nc(C)c(N=Nc3ccccc3)c2C)c1
Result: > 100 µM

Ask: // returns reported TGI for input CN(CC(=O)O)S(=O)(=O)c1ccc2ccccc2c1
Result: > 100 µM

Ask: // returns reported TGI for input CCOC(=O)c1ncn2c1[nH]c(=S)c1ccccc12
Result: > 100 µM

Ask: // returns reported TGI for input Cc1ccc(-c2n[nH]c(Cc3nc(-c4ccc(C)cc4)n[nH]3)n2)cc1
Result: > 100 µM

Ask: // returns reported TGI for input CCOC(=O)Nc1nc2ccc(OCC)cc2s1
Result: > 100 µM

Ask: // returns reported TGI for input C[C@@H](CS(C)(=O)=O)Nc1ncc2cc(Oc3ccc(F)cc3F)c(=O)n(C)c2n1
Result: > 25 µM

Ask: // returns reported TGI for input CC1CN1P1(N2CC2C)=NP(N2CC2C)(N2CC2C)=NP(N2CC2C)(N2CC2C)=N1 (configuration not stated)
Result: > 50 µM

Ask: // returns reported TGI for input Cc1ccc(Cc2n[nH]c(=O)[nH]2)cc1
Result: > 100 µM
